- System: pancreatic cancer cell line ASPC-1
- Assay Details: Cell growth inhibitory activity, ASPC-1
- Format: cell-based
- Reported Conditions: Homo sapiens, ASPC1; Table 7
Assay Endpoint: IC50 (µM)
Form entry: value (µM) — number only.

Looking for the measured IC50 of COc1cc(/C=C/C(=O)CC(=O)/C=C/c2ccc(O)c(OC)c2)ccc1O [curcumin, reference compound] , can you help?
18.5

====

- Tested on: cutaneous T-cell lymphoma cell line HH
- Assay Details: Cell growth inhibitory activity, HH
- Type: cell-based
- Reported Conditions: T-cell; Table 10
Assay Endpoint: IC50 (µM)
Form entry: value (µM) — number only.

Looking for the measured IC50 of COc1cc(/C=C/C(=O)CC(=O)/C=C/c2ccc(O)c(OC)c2)ccc1O [curcumin, reference compound] , can you help?
18.1
